- test-details: Drug level in human urine at 500 mg, im bid for 3 days
- Assay type: ADME, organism-based
- setup-conditions: read-out: Drug uptake
readout: concentration at 72 h (µg/mL)
Express your answer in µg/mL, writing the number without its unit.

Query string: Requested read-out: concentration at 72 h. Entry: CO[C@@]1(NC(=O)C(C(=O)O)c2ccsc2)C(=O)N2[C@@H](C(=O)O)C(C)(C)S[C@@H]21 (stereo partly specified)
Result string: 500

====

- test-details: Protein binding in human serum at 1 gram, iv
- Format: ADME, organism-based
- setup-conditions: read-out: PB (converted)
readout: fraction unbound
Give the value as a plain number.

Query string: Recorded fraction unbound of CO[C@@]1(NC(=O)C(C(=O)O)c2ccsc2)C(=O)N2[C@@H](C(=O)O)C(C)(C)S[C@@H]21 (stereo partly specified) , please.
Result string: 0.15

====

- test-details: Cmax in human serum at 1 gram, iv
- Format: ADME, organism-based
- Parameters: route intravenous
readout: Cmax (µg/mL)
Give the value, in units of µg/mL, as a plain number.

Query string: Look up Cmax for this compound: CO[C@@]1(NC(=O)C(C(=O)O)c2ccsc2)C(=O)N2[C@@H](C(=O)O)C(C)(C)S[C@@H]21 (stereo partly specified)
Result string: 160

====

- test-details: Half life in human serum at 1 gram, iv
- Assay type: ADME, organism-based
readout: half-life (h)
Respond with the bare value in h.

Query string: Entry under review: CO[C@@]1(NC(=O)C(C(=O)O)c2ccsc2)C(=O)N2[C@@H](C(=O)O)C(C)(C)S[C@@H]21 (stereo partly specified) . Reported half-life?
Result string: 4
